# System tested: human PTHR1 (Homo sapiens, UniProt Q03431)
# Construct: expressed in transfected cells
# Sequence (Q03431 27-593): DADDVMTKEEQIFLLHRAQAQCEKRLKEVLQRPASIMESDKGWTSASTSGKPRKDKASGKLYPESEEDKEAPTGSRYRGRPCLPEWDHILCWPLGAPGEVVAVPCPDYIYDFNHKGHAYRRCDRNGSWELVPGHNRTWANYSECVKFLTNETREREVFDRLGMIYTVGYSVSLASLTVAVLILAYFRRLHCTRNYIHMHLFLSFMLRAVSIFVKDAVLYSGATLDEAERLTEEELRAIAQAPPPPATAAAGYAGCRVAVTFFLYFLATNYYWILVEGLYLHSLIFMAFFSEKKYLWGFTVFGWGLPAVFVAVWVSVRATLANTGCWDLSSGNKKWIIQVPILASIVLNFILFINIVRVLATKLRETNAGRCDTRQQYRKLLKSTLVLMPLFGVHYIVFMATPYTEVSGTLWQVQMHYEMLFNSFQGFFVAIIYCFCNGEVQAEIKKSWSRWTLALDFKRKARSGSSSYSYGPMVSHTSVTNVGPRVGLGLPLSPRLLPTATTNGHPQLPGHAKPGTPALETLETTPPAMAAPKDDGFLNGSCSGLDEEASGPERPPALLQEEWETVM
# Method: GloSensor cAMP signaling assay in GP‐2.3 cells
# Assay type: cell-based
Where no end group is shown, it is not given here.
Each record here notes measured Emax.
State just the number; it will be interpreted in %.

Please review the entries below; each comes with its answer.
[ask] Return the recorded Emax value; entry: AVAEIQLMHQRAKWIQDLRRRFFLHHLIAEIHTAEI [M‐PTH(1‐14)/PTHrP(15‐36)]
[reply] 105

[ask] Answer with the recorded Emax for the sequence listed here: AVAEIQLMHQRAKWLNSMERVEWLRKKLQDIHTAEI [M‐PTH(1‐30)/PTHrP(31‐36)]
[reply] 106

We now examine a further sequence.
[ask] In one line, give reported Emax of the entry AVAEIQLMHQRAKWLNSMRRRFFLHHLIAEIHTAEI [M‐PTH(1‐18)/PTHrP(19‐36)] .
[reply] 107
